Molecular target: Cytochrome P450 2C19 (Homo sapiens)
Sequence (P33261 whole entry): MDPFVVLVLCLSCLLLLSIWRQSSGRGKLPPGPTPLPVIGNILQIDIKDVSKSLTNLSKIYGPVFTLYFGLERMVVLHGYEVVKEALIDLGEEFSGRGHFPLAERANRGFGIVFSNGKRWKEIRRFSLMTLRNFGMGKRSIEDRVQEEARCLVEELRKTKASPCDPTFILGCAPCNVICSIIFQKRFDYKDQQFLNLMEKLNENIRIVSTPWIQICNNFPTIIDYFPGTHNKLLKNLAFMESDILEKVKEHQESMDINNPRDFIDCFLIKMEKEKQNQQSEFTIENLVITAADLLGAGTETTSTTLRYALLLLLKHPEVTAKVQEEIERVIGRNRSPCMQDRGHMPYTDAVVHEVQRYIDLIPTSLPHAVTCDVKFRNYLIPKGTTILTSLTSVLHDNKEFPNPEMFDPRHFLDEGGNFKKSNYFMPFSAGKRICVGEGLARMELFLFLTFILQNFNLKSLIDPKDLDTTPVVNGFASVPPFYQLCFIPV
Experiment: Cytochrome panel assay with activity outcomes. Panel member name: p450-cyp2c19 Compounds with AC50 equal or less than 10 uM are considered active
Format: functional
Conditions: read-out: AC50
Give measured AC50 for each item. Keep answers brief.

Solved cases (4 shown):
INSERT INTO results (compound, assay_target, assay_readout, value_observed) VALUES
  ('CC(C)[C@@H]1C(=O)N(S(C)(=O)=O)[C@H]2CCN(C(=O)/C=C\CN3CCCCC3)[C@@H]12', 'Cytochrome P450 2C19 (Homo sapiens)', 'AC50', '20 µM (inconclusive)'),
  ('CCOC(=O)CCCNC(=O)c1cncc(Br)c1', 'Cytochrome P450 2C19 (Homo sapiens)', 'AC50', '39.8 µM (inconclusive)'),
  ('Cc1ccc(Nc2ncccc2C(=O)NCc2cccs2)c(C)c1', 'Cytochrome P450 2C19 (Homo sapiens)', 'AC50', '7.08 µM (inconclusive)'),
  ('COc1cccc(/C=N\NC(=O)C2C(=O)NCC2c2ccccc2)c1O (stereo not given)', 'Cytochrome P450 2C19 (Homo sapiens)', 'AC50', '39.8 µM (inconclusive)');

Please look at the following compound next.
INPUT: Given N#Cc1ccccc1/C=N/Nc1nc(-c2ccccc2)c2cc(Cl)ccc2n1 , respond with its AC50.
OUTPUT: 25.1 µM (inconclusive)
